Origin of values: patent US6458802B1

target: human 5HT1A receptors (Homo sapiens); construct: expressed in transfected cells; host or cells: CHO cells; experiment: [3H] 8-OH-DPAT displacement from the 5HT1A serotonin receptor (transfected CHO cells); assay type: binding
Sequence (P08908 whole entry): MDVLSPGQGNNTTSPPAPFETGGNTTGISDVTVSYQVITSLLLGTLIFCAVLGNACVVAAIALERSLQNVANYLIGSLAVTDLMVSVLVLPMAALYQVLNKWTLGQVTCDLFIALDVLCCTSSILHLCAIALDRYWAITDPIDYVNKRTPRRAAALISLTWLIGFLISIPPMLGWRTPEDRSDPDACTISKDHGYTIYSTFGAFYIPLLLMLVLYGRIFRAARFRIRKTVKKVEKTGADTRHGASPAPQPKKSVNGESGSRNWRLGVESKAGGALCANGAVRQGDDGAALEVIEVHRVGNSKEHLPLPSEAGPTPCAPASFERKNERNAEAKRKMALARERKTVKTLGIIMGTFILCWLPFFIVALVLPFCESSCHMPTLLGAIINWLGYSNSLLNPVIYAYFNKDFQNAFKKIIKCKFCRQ
Each entry below carries its reported pKi.
Expect pKi as a plain number equal to -log10 of the molar concentration.

Would you please look over these solved cases?
| molecule | pKi |
| --- | --- |
| Cc1ccc2c3c(ccc2n1)OCC(CN1CC=C(c2c[nH]c4ccc(F)cc24)CC1)O3 (stereo not shown) | 7.88 |
| Nc1ccc2c3c(ccc2n1)OC[C@H](CN1CC=C(c2c[nH]c4ccc(F)cc24)CC1)O3 | 7.96 |
| Cc1ccc2c3c(ccc2n1)OCC(CN1CCC(c2c[nH]c4ccccc24)CC1)O3 (stereo not shown) | 8.00 |
| CCc1ccc2c3c(ccc2n1)OCC(CN1CC=C(c2c[nH]c4ccccc24)CC1)O3 (stereo not shown) | 8.17 |
| Fc1ccc2[nH]cc(C3=CCN(C[C@H]4COc5ccc6ncccc6c5O4)CC3)c2c1 | 8.01 |
| Cc1ccc2c3c(ccc2n1)OCC(CN1CC=C(c2c[nH]c4ccccc24)CC1)O3 (stereo not shown) | 8.52 |
| Cn1cc(C2=CCN(C[C@H]3COc4ccc5ncccc5c4O3)CC2)c2cc(F)ccc21 | 7.83 |
| CCc1ccc2c3c(ccc2n1)OCC(CN1CC=C(c2c[nH]c4ccc(F)cc24)CC1)O3 (stereo not shown) | 7.81 |
| Cc1ccc2c3c(ccc2n1)OC[C@H](CN1CC=C(c2c[nH]c4c(F)cccc24)CC1)O3 | 8.11 |

Next molecule, please.
Name the recorded pKi for Fc1ccc2[nH]cc(C3=CCN(CC4COc5cc(F)c6ncccc6c5O4)CC3)c2c1 (stereo not shown) .
7.44
